Form field: remaining activity at 25 µM (one value per entry).
# testedTarget: WIZ protein (HiBit-WIZ fusion protein) (Homo sapiens, UniProt O95785+Q96SW2)
# Construct: expressed in transfected cells
# Sequence (O95785 whole entry, the tested form may be a part): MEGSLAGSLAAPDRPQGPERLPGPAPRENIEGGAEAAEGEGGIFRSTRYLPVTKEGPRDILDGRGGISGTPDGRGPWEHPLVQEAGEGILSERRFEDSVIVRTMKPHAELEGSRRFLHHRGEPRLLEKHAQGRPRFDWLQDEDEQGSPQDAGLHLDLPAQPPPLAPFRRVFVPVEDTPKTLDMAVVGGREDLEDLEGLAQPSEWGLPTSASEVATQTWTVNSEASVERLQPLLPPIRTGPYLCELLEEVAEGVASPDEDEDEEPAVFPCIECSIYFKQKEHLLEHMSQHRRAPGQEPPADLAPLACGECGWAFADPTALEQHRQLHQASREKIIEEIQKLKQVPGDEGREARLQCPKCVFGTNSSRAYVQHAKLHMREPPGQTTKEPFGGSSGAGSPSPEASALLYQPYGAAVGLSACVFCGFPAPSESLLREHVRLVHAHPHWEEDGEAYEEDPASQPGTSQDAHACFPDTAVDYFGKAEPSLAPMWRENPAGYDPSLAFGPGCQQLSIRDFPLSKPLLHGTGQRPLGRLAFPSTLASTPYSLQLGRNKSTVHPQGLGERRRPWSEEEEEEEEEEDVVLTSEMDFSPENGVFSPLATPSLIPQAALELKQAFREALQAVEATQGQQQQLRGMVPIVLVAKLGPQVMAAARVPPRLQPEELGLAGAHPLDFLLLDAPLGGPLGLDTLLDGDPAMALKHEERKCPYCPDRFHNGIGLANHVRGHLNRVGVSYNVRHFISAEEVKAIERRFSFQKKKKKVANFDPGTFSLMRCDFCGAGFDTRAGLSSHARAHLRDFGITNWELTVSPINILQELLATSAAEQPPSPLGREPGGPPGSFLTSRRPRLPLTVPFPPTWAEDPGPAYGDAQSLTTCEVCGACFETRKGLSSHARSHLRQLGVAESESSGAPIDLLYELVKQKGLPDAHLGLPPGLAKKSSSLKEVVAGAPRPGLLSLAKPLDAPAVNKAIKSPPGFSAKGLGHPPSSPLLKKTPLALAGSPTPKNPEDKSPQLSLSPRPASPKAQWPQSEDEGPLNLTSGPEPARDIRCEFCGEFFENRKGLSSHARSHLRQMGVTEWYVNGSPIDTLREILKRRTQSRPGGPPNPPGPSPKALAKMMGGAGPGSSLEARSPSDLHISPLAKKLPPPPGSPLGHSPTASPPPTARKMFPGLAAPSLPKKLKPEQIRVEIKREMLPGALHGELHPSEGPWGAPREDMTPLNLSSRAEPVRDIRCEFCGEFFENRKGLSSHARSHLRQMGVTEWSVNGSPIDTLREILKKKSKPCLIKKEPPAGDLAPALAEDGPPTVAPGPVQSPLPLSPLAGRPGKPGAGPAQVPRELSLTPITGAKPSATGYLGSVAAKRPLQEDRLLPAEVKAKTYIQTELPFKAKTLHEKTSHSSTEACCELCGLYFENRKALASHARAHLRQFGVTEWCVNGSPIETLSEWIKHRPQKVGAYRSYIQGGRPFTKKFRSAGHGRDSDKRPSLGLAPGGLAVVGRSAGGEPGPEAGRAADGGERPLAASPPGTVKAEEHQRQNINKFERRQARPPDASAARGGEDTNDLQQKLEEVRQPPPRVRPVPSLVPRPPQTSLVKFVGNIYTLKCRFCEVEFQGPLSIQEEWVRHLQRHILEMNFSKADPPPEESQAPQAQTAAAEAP
# Sequence (Q96SW2 whole entry, the tested form may be a part): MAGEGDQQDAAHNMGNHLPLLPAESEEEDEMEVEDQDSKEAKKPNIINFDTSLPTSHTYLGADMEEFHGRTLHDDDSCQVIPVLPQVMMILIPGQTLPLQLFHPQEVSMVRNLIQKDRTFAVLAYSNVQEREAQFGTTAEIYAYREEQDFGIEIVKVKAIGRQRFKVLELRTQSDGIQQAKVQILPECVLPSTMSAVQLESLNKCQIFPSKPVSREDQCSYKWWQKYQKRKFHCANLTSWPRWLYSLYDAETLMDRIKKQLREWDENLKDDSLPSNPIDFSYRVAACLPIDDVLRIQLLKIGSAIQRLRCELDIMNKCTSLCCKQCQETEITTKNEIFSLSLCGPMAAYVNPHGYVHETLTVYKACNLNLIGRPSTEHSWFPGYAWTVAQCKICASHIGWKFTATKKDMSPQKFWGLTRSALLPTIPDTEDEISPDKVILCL
# Sequence (Q16531 whole entry partner, the tested form may be a part): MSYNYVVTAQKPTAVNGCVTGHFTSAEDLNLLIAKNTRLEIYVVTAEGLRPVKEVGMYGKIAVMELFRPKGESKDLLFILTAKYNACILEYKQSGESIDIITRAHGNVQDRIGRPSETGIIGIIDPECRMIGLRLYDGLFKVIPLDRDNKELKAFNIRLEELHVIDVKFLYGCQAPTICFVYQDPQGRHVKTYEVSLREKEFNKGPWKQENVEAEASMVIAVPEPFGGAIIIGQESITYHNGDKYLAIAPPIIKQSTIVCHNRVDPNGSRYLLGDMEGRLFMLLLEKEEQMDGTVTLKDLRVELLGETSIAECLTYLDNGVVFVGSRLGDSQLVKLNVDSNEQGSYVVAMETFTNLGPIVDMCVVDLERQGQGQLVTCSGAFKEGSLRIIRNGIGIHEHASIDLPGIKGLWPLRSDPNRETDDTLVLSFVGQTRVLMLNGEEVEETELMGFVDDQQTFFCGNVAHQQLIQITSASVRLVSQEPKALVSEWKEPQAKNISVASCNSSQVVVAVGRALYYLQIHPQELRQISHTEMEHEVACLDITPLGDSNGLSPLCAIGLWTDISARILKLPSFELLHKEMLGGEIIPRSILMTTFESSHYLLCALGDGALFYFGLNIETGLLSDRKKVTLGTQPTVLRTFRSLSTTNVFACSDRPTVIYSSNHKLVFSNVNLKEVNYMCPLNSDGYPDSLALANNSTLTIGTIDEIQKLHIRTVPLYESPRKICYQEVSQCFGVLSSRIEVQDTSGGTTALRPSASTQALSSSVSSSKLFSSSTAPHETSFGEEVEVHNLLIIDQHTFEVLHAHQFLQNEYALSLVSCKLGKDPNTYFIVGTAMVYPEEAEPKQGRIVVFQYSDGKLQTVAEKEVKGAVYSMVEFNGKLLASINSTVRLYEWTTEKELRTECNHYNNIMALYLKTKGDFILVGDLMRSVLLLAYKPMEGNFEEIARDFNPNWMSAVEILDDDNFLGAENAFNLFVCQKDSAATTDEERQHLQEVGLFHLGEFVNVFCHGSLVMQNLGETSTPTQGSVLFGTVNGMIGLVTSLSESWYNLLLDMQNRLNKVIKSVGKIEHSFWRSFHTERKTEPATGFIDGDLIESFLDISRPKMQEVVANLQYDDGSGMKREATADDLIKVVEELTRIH
# procedureText: Quantification of WIZ protein levels in HiBit tag fusion protein assay (WIZ HiBit assay in 293T cells)
# Type: cell-based
# conditionSummary: HEK-293T, DMSO-normalized, curve-fitted percentage of WIZ-HiBit remaining at 25 uM; 293T cells; read-out: WIZ Amax
# Method: The HiBit system from Promega was used to develop high-throughput and quantitative assays to measure changes in WIZ protein levels in response to compounds. […] The complementary fragment of Nanoluciferase (known as LgBit, from Promega), was added to the HiBit tag to form an active Nanoluciferase enzyme whose activity can be precisely measured. In this way, the levels of a fusion protein with the HiBit tag can be quantified in cell lysates. […]
assayReadout: remaining activity at 25 µM (%)

> print(dat)
                                  smilestext                              testedtarget                 assayreadout  assayvalue
 1  C[C@H]1C[C@H](Cc2ccn3ncc(N4CCC(=O)NC4=O)c3c2)CCN1CC1CCC1  WIZ protein (HiBit-WIZ fusion protein) (Homo sapiens, UniProt O95785+Q96SW2)  remaining activity at 25 µM          18
 2  O=C1CCN(c2cnn3ccc(CC4CCN(S(=O)(=O)Cc5ccccc5)CC4)cc23)C(=O)N1  WIZ protein (HiBit-WIZ fusion protein) (Homo sapiens, UniProt O95785+Q96SW2)  remaining activity at 25 µM          22
 3  C[C@H]1CN(Cc2ccn3ncc(N4CCC(=O)NC4=O)c3c2)CCN1C1CCCCC1  WIZ protein (HiBit-WIZ fusion protein) (Homo sapiens, UniProt O95785+Q96SW2)  remaining activity at 25 µM          13
 4  O=C1CCN(c2cnn3ccc(CC4CCN(CC5CCNCC5)CC4)cc23)C(=O)N1  WIZ protein (HiBit-WIZ fusion protein) (Homo sapiens, UniProt O95785+Q96SW2)  remaining activity at 25 µM          64
 5  CC(C)CN1CCN(Cc2ccn3ncc(-n4cc(F)c(=O)[nH]c4=O)c3c2)C[C@@H]1C  WIZ protein (HiBit-WIZ fusion protein) (Homo sapiens, UniProt O95785+Q96SW2)  remaining activity at 25 µM          14
 6  Cc1cccc(CN2CCN(Cc3ccn4ncc(N5CCC(=O)NC5=O)c4c3)CC2)c1  WIZ protein (HiBit-WIZ fusion protein) (Homo sapiens, UniProt O95785+Q96SW2)  remaining activity at 25 µM          46
 7  C[C@@H]1CN(CC2CCCCC2)CCN1Cc1ccn2ncc(N3CCC(=O)NC3=O)c2c1  WIZ protein (HiBit-WIZ fusion protein) (Homo sapiens, UniProt O95785+Q96SW2)  remaining activity at 25 µM          29
 8  CN1CCC(Cc2ccn3ncc(N4CCC(=O)NC4=O)c3c2)CC1  WIZ protein (HiBit-WIZ fusion protein) (Homo sapiens, UniProt O95785+Q96SW2)  remaining activity at 25 µM          34
 9  CO[C@H]1CC[C@H](CN2CCC(Cc3ccn4ncc(N5CCC(=O)NC5=O)c4c3)CC2)CC1  WIZ protein (HiBit-WIZ fusion protein) (Homo sapiens, UniProt O95785+Q96SW2)  remaining activity at 25 µM           6
10  C[C@H]1CN(Cc2ccn3ncc(N4CCC(=O)NC4=O)c3c2)CCN1C[C@H]1CC[C@H](O)CC1  WIZ protein (HiBit-WIZ fusion protein) (Homo sapiens, UniProt O95785+Q96SW2)  remaining activity at 25 µM          12
11  C[C@H]1C[C@H](Cc2ccn3ncc(N4CCC(=O)NC4=O)c3c2)CCN1S(=O)(=O)NC1CCCC1  WIZ protein (HiBit-WIZ fusion protein) (Homo sapiens, UniProt O95785+Q96SW2)  remaining activity at 25 µM          24

Data origin: patent US11787785B2
